Biological target: GDP-bound KRAS wild-type protein (Homo sapiens, UniProt P01116)
Sequence (P01116 1-188 isoform P01116-2): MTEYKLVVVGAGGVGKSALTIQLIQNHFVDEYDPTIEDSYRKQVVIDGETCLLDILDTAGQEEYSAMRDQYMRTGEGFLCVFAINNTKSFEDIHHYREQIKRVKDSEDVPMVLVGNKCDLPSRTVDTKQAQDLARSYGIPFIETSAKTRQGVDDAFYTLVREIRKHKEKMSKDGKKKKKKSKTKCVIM
Test: Binding to KRAS by surface plasmon resonance (SPR), dissociation constant KD
Conditions: 1:1 binding model
measured-attribute: pKd
Expect pKd as a plain number equal to -log10 of the molar concentration.

Consider the worked cases shown below.
[
  {
    "mol": "CCC(CC)[C@H]1C(=O)N(C)[C@H](C(=O)N2CCCCC2)CC(=O)N(C)[C@H]2CCC/C=C/c3ccc(cc3)C[C@@H](C(=O)N(C)CC(=O)N[C@@H](CCc3ccc(Cl)c(Cl)c3)C(=O)N3CCC[C@H]3C(=O)NC3(CC(C)(C)C3)C(=O)N1C)N1CC/C=C\\C[C@@H](C1=O)N(C)C(=O)CN(C)C(=O)[C@H]([C@@H](C)CC)NC2=O",
    "assay-target": "GDP-bound KRAS wild-type protein (Homo sapiens, UniProt P01116)",
    "pKd": 9.00
  },
  {
    "mol": "CCC(CC)[C@H]1C(=O)N(C)[C@H](C(=O)N(C)C)CC(=O)N(C)[C@@H](COC)C(=O)N[C@@H]([C@@H](C)CC)C(=O)N2CCC[C@H]2C(=O)N(C)[C@H]2C/C=C\\CCN(C2=O)[C@@H](Cc2ccc(C(F)(F)F)cc2)C(=O)N(C)CC(=O)N[C@@H](CCc2ccc(Cl)c(Cl)c2)C(=O)N2C[C@H](OC3CCCC3)C[C@H]2C(=O)NC2(CC(C)(C)C2)C(=O)N1C",
    "assay-target": "GDP-bound KRAS wild-type protein (Homo sapiens, UniProt P01116)",
    "pKd": 8.72
  },
  {
    "mol": "CCC[C@H]1C(=O)N[C@@H]([C@@H](C)CC)C(=O)N2C[C@@H](OC)C[C@H]2C(=O)N(C)[C@H]2C/C=C\\CCN(C2=O)[C@@H](Cc2ccc(C)cc2)C(=O)N(C)CC(=O)N[C@@H](CCc2cc(F)c(C(F)(F)F)c(F)c2)C(=O)N2C[C@H](OCC)C[C@H]2C(=O)NC2(CC(C)(C)C2)C(=O)N(C)[C@@H](C2CCCC2)C(=O)N(C)[C@H](C(=O)N(C)C)CC(=O)N1C",
    "assay-target": "GDP-bound KRAS wild-type protein (Homo sapiens, UniProt P01116)",
    "pKd": 9.68
  },
  {
    "mol": "CCO[C@@H]1C[C@H]2C(=O)NC3(CCC3)C(=O)N(C)[C@@H](C3CCCC3)C(=O)N(C)[C@H](C(=O)N(C)C)CC(=O)N(C)[C@@H](CC3CCCC3)C(=O)N[C@@H]([C@@H](C)CC)C(=O)N(C)CC(=O)N(C)[C@H]3C/C=C\\CCN(C3=O)[C@@H](Cc3ccc(C)cc3)C(=O)N(C)CC(=O)N[C@@H](CCc3ccc(C4CC4)c(Cl)c3)C(=O)N2C1",
    "assay-target": "GDP-bound KRAS wild-type protein (Homo sapiens, UniProt P01116)",
    "pKd": 9.37
  },
  {
    "mol": "CCO[C@@H]1C[C@H]2C(=O)NC3(CC(C)(C)C3)C(=O)N(C)[C@@H](C3CCCC3)C(=O)N(C)[C@H](C(=O)N(C)CC)CC(=O)N(C)[C@@H](CC(C)C)C(=O)N[C@@H]([C@@H](C)CC)C(=O)N(C)CC(=O)N(C)[C@H]3C/C=C\\CCN(C3=O)[C@@H](Cc3ccc(C(F)F)cc3)C(=O)N(C)CC(=O)N[C@@H](CCc3cc(C)c(C(F)F)c(Cl)c3)C(=O)N2C1",
    "assay-target": "GDP-bound KRAS wild-type protein (Homo sapiens, UniProt P01116)",
    "pKd": 8.85
  }
]

Now let's try a different one.
GET /value?item= `CCO[C@@H]1C[C@H]2C(=O)NC3(CC(C)(C)C3)C(=O)N(C)[C@@H](C3CCCC3)C(=O)N(C)[C@H](C(=O)N(C)CC)CC(=O)N(C)[C@@H](CC(C)C)C(=O)N[C@@H]([C@@H](C)CC)C(=O)N(C)CC(=O)N(C)[C@H]3C/C=C\CCN(C3=O)[C@@H](Cc3ccc(C(F)F)cc3)C(=O)N(C)CC(=O)N[C@@H](CCc3ccc4c(c3)CCC4(F)F)C(=O)N2C1` &field=pKd returns 8.70
